- Experimental Target: Ba/F3 ERBB2 YVMA (Homo sapiens, UniProt P04626, DUP772-775, cells depend on it)
- Sequence (P04626 with tags, fused parts or gaps DUP772-775): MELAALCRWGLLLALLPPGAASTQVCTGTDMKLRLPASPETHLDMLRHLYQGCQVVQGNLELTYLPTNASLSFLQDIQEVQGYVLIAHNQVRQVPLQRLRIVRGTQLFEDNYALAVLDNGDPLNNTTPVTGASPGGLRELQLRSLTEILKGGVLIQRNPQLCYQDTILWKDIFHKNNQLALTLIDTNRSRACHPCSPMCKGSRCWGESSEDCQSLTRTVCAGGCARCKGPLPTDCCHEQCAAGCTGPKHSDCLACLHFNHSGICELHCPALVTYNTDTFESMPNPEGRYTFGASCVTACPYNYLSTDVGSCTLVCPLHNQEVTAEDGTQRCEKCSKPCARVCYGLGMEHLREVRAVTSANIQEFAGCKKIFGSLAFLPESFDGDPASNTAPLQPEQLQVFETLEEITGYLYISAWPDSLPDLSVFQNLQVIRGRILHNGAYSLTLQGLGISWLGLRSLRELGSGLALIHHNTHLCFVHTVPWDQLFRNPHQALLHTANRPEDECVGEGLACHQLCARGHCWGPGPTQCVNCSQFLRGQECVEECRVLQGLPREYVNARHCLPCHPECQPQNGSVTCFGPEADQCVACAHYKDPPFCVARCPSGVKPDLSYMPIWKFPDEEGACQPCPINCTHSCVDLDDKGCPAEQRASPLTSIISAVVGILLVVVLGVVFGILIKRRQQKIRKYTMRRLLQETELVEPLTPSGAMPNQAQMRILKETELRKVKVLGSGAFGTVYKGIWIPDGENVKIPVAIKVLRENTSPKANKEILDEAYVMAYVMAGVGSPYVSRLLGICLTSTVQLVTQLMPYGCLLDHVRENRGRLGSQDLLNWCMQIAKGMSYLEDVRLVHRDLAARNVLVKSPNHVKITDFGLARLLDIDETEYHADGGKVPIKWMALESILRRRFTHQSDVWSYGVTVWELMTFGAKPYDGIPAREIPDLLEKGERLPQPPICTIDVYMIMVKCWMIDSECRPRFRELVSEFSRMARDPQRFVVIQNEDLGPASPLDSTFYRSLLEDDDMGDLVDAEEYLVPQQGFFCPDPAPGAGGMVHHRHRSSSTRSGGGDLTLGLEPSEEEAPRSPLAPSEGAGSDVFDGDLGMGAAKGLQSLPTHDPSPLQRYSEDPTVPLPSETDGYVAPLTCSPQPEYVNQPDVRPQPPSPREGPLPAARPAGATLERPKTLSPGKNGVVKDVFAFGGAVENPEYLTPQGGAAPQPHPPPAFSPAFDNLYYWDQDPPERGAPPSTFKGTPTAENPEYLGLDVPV
- Method Notes: Cell viability assay (CellTiter Glo), Ba/F3 cells engineered to express ERBB2 YVMA
- Assay type: cell-based, mouse
- Condition Set: Ba/F3 cells expressing human ERBB2 YVMA mutant, 72 hours, read-out: Ba/F3 ERBB2 YVMA, IC50
The label is Yes for GI50 below 40 nM and No for GI50 equal to or exceeding 40 nM.

Example entries begin here.
C=CC(=O)N1CCN2C[C@H]1COc1c2ccc2ncnc(Nc3ccc(Oc4ccn5ncnc5c4)c(C)c3)c12 | No
Cc1cc(Nc2ncnc3ccc4c(c23)OC[C@H]2CN4CCN2C(=O)/C=C/[C@@H](C)N(C)C)c(F)cc1Oc1ccn2ncnc2c1 | Yes
C=CC(=O)N1CCN2c3ccc4ncnc(Nc5ccc(Oc6ccn7ncnc7c6)c(C)c5)c4c3OC[C@H]2C1 | Yes
Cc1cc(Nc2ncnc3cnc4c(c23)OC[C@H]2CN(C(=O)/C=C/CN(C)C)CCN42)c(F)cc1Oc1ccn2ncnc2c1 | Yes
CN(C)C/C=C/C(=O)N1CCN2c3ccc4ncnc(Nc5ccc(Oc6ccn7ncnc7c6)cc5F)c4c3OC[C@H]2C1 | Yes
C=CC(=O)N1CCN2c3cc4c(Nc5ccc(Oc6ccn7ncnc7c6)c(C)c5)ncnc4cc3OC[C@H]2C1 | No
CN(C)C/C=C/C(=O)N1CCN2C[C@@H]1COc1c2ccc2ncnc(Nc3ccc(Oc4ccn5ncnc5c4)cc3F)c12 | Yes
CN(C)C/C=C/C(=O)N1CCN2c3ccc4ncnc(Nc5ccc(Oc6ccn7ncnc7c6)c(F)c5)c4c3OC[C@@H]2C1 | Yes
CN(C)C/C=C/C(=O)N1CCN2c3ncc4ncnc(Nc5cc(F)c(Oc6ccn7ncnc7c6)cc5F)c4c3OC[C@H]2C1 | Yes
Cc1cc(Nc2ncnc3cnc4c(c23)OC[C@H]2CN(C)CCN42)ccc1Oc1ccc2c(c1)ncn2C | No

Moving on to the next molecule.
Incoming: Problem: For the molecule C=CC(=O)N1CCN2c3cc4c(Nc5ccc(Oc6ccc7c(c6)ncn7C)c(C)c5)ncnc4cc3OC[C@H]2C1 , is GI50 under 40 nM?
Outgoing: No

====

GI50 by entry:
- Experimental Target: Ba/F3 ERBB2 YVMA (Homo sapiens, UniProt P04626, DUP772-775, cells depend on it)
- Method Notes: Cell viability assay (CellTiter Glo), Ba/F3 cells engineered to express ERBB2 YVMA
- Type: cell-based, mouse
- Condition Set: Ba/F3 cells expressing human ERBB2 YVMA mutant, 72 hours, read-out: Ba/F3 ERBB2 YVMA, IC50
Numeric only. Scale: nM

Cc1cc(Nc2ncnc3ccc4c(c23)OC[C@H]2CN4CCN2C(=O)/C=C/C2(F)CN(C)C2)ccc1Oc1ccn2ncnc2c1 | 8.51

Incoming: Report measured GI50; entry is CN(C)C/C=C/C(=O)N1CCN2C[C@@H]1COc1c2ccc2ncnc(Nc3ccc(Oc4ccn5ncnc5c4)cc3)c12
Outgoing: 14.4

Incoming: Report measured GI50; entry is C=CC(=O)N1CCN2c3nc4c(Nc5ccc(Oc6ccn7ncnc7c6)c(C)c5)ncnc4cc3OC[C@H]2C1
Outgoing: 4.54

Incoming: Report measured GI50; entry is Cc1cc(Nc2ncnc3ccc4c(c23)OC[C@H]2CN(C(=O)/C=C/CN(C)C)CCN42)c(F)cc1Oc1ccn2ncnc2c1
Outgoing: 14
